Data provenance: patent US11028051B2

# Tested system: BRD2-BD1 (Homo sapiens (Human), UniProt P25440)
# Sequence (P25440 74-180): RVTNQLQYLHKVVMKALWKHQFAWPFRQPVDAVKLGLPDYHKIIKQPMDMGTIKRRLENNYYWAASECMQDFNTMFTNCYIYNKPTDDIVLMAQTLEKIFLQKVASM
# Protocol: surface plasmon resonance analysis of binding
# Conditions used: SPR, BRD2(1) (printed MRD2(1))
Reported metric: pKd
Give only the number. pKd is defined as minus log10 of concentration in molar units.

For COC(=O)c1ccc(N[C@@H]2C[C@H](C)N(C(C)=O)c3ccc(-c4cccc(NC(C)=O)c4)cc32)cc1 , what is its reported pKd?
6.88

###

# Tested system: UniProt Q58F21
# Protocol: competitive TR-FRET assay, BET-BD with acetylated peptide ligand
# Type: binding
# Conditions used: BRDT; Table 11 additional modifications; read-out: BRDT EC50
// reported EC50 per item
Numeric answer plus unit only.

For CC(=O)Nc1cccc(-c2ccc3c(c2)[C@H](N)C[C@H](C)N3C(C)=O)c1 , what is its reported EC50?
10 µM

For CC(=O)Nc1cccc(-c2ccc3c(c2)[C@H](Nc2ccc(S(=O)(=O)N(C)C)cc2)C[C@H](C)N3C(C)=O)c1 , what is its reported EC50?
2.9 µM

For CC(=O)Nc1cccc(-c2ccc3c(c2)[C@H](Nc2ccc(-c4nnco4)cc2)C[C@H](C)N3C(C)=O)c1 , what is its reported EC50?
0.89 µM

For CC(=O)N1c2ccc(-c3cccc(NC(=O)C4CC4)c3)cc2[C@H](NC(=O)OC(C)C)C[C@@H]1C , what is its reported EC50?
84 µM

For CC(=O)Nc1cccc(-c2ccc3c(c2)[C@H](Nc2ccc4ncccc4c2)C[C@H](C)N3C(C)=O)c1 , what is its reported EC50?
2.5 µM

For CC(=O)Nc1cccc(-c2ccc3c(c2)[C@H](Nc2ccc([N+](=O)[O-])cc2)C[C@H](C)N3C(C)=O)c1 , what is its reported EC50?
4.1 µM

For CCCOc1cccc(-c2ccc3c(c2)[C@H](Nc2ccc(F)cc2OC)C[C@H](C)N3C(C)=O)c1 , what is its reported EC50?
39 µM

For CC(=O)N1c2ccc(-c3cccc(NC(=O)C4CCC(C)CC4)c3)cc2[C@H](NC(=O)OC(C)C)C[C@@H]1C (stereo partly shown) , what is its reported EC50?
1.2 µM

For CC(=O)Nc1cccc(-c2ccc3c(c2)[C@H](NC2CCCC2)C[C@H](C)N3C(C)=O)c1 , what is its reported EC50?
11 µM

For CC(=O)N1c2ccc(-c3cccc(NC(=O)CCc4ccccc4)c3)cc2[C@H](NC(=O)OC(C)C)C[C@@H]1C , what is its reported EC50?
1.2 µM

###

// reported pEC50 per item
# Tested system: BRDT (Homo sapiens)
# Protocol: competitive TR-FRET assay, BET-BD with acetylated peptide ligand
# Format: binding
# Conditions used: Table 6; head names no target, BRDT by comparison with Table 4; read-out: EC50
Give only the number. pEC50 is defined as minus log10 of concentration in molar units.

For orientation, consider the following solved cases.
CCCNc1cccc(-c2ccc3c(c2)[C@H](Nc2ccc(C(=O)OC)cc2)C[C@H](C)N3C(C)=O)c1	5.59
CCCCCNc1cccc(-c2ccc3c(c2)[C@H](Nc2ccc(C(=O)OC)cc2)C[C@H](C)N3C(C)=O)c1	5.13
COC(=O)c1ccc(N[C@@H]2C[C@H](C)N(C(C)=O)c3ccc(-c4cccc(NC(C)=O)c4)cc32)cc1	5.40
CC(=O)N1c2ccc(-c3ccc(C(=O)O)cc3)cc2[C@H](Nc2ccc(Cl)cc2)C[C@@H]1C [GSK-726, IBET-726, reference compound]	5.26
COC(=O)c1ccc(N[C@@H]2C[C@H](C)N(C(C)=O)c3ccc(-c4cccc(NCCC(F)(F)F)c4)cc32)cc1	5.24

For COC(=O)c1ccc(N[C@@H]2C[C@H](C)N(C(C)=O)c3ccc(-c4cccc(NCc5ccoc5)c4)cc32)cc1 , what is its reported pEC50?
5.92

For CCCCNc1cccc(-c2ccc3c(c2)[C@H](Nc2ccc(C(=O)OC)cc2)C[C@H](C)N3C(C)=O)c1 , what is its reported pEC50?
5.14

###

# Tested system: BRD2-BD2 (Homo sapiens (Human), UniProt P25440)
# Protocol: isothermal titration calorimetry analysis of binding
# Conditions used: ITC, BRD2(2); read-out: KD (ITC)
# Experimental: b. Isothermal Titration Calorimetry Analysis of Binding to Brd2-BD1 and Brd2-BD2 Binding of compounds to BRD2 was monitored using an ITC200 (Microcal, Piscataway, N.J.). Either Brd2.1 (74-194) or Brd2.2 (348-455) was dialyzed overnight into a solution containing 50 mM HEPES, pH 7.0 and 150 mM NaCl at 15° C. Enzyme concentrations were determined after dialysis by absorbance at 280 nm using a molar extinction coefficient (ε280) of 25,565 M^−1 cm^−1 (2.1) or 16,055 M^−1 cm^−1 (2.2). […]
# Sequence (P25440 348-455): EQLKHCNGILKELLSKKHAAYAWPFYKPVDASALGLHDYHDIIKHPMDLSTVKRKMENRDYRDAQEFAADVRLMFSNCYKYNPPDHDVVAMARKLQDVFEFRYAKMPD
pKd: −log10 of the molar value.
Reported metric: pKd

Tell me reported pKd for COC(=O)c1ccc(N[C@@H]2C[C@H](C)N(C(C)=O)c3ccc(-c4cccc(NC(C)=O)c4)cc32)cc1 , tested with BRD2-BD2 (Homo sapiens (Human), UniProt P25440).
> 9.00

###

# Tested system: BRD4-BD1 (Homo sapiens (Human), UniProt O60885)
# Protocol: competitive TR-FRET assay, BET-BD with acetylated peptide ligand
# Format: binding
# Conditions used: BRD4-BD1; Table 11 additional modifications; read-out: 4.1 EC50
Reported metric: pEC50
Give only the number. pEC50 is defined as minus log10 of concentration in molar units.

For orientation, consider the following solved cases.
CC(=O)N1c2ccc(-c3cccc(N)c3)cc2[C@H](NC(=O)OC(C)C)C[C@@H]1C [compound 2]	5.73
COC(=O)c1ccc(N[C@@H]2C[C@H](C)N(C(C)=O)c3ccc(-c4cccc(OCCN5CCOCC5)c4)cc32)cc1 [compound 166]	6.19

For CCCC(=O)Nc1cccc(-c2ccc3c(c2)[C@H](NC(=O)OC(C)C)C[C@H](C)N3C(C)=O)c1 [compound 101] , what is its reported pEC50?
6.02

For CC(=O)Nc1cccc(-c2ccc3c(c2)[C@H](NC(=O)c2ccc(Cl)cc2)C[C@H](C)N3C(C)=O)c1 [compound 72] , what is its reported pEC50?
4.41

For CC(=O)N1c2ccc(-c3cc4ccccc4o3)cc2[C@H](NC(=O)OC(C)C)C[C@@H]1C [compound 86] , what is its reported pEC50?
5.60

For CC(=O)Nc1cccc(-c2ccc3c(c2)[C@H](Nc2ccc4ncccc4c2)C[C@H](C)N3C(C)=O)c1 [compound 13] , what is its reported pEC50?
5.89

###

// reported pEC50 per item
# Tested system: BRD2-BD1 (Homo sapiens (Human), UniProt P25440)
# Protocol: competitive TR-FRET assay, BET-BD with acetylated peptide ligand
# Assay type: binding
# Conditions used: BRD2-BD1; Table 11 additional modifications; read-out: 2.1 EC50
Give only the number. pEC50 is defined as minus log10 of concentration in molar units.

CCCCN(CCCC)c1cccc(-c2ccc3c(c2)[C@H](Nc2ccc(C(=O)OC)cc2)C[C@H](C)N3C(C)=O)c1 [compound 143]	5.10
CCCOc1cccc(-c2ccc3c(c2)[C@H](Nc2ccc(C(=O)OC)cc2)C[C@H](C)N3C(C)=O)c1 [compound 56]	5.09
CC(=O)Nc1cccc(-c2ccc3c(c2)[C@H](Nc2ccc4c(c2)CCNC4)C[C@H](C)N3C(C)=O)c1 [compound 188]	6.96

For CC(=O)Nc1cccc(-c2ccc3c(c2)[C@H](NCCCc2ccccc2)C[C@H](C)N3C(C)=O)c1 [compound 70] , what is its reported pEC50?
4.80

For CC(=O)Nc1cccc(-c2ccc3c(c2)[C@H](Nc2ccc(C(C)=O)cc2)C[C@H](C)N3C(C)=O)c1 [compound 17] , what is its reported pEC50?
5.96

For CC(=O)N1c2ccc(-c3cccc(NC(=O)C4CCCCC4)c3)cc2[C@H](NC(=O)OC(C)C)C[C@@H]1C [compound 99] , what is its reported pEC50?
6.03

For CC(=O)N1c2ccc(-c3ccc4c(c3)OCCO4)cc2[C@H](NC(=O)OC(C)C)C[C@@H]1C [compound 77] , what is its reported pEC50?
4.80

For CC(=O)N1c2ccc(-c3cccc(NC(=O)C(C)C)c3)cc2[C@H](Nc2ccc(C#N)cc2)C[C@@H]1C [compound 184] , what is its reported pEC50?
6.17

###

# Tested system: BRD2-BD2 (Homo sapiens (Human), UniProt P25440)
# Protocol: competitive TR-FRET assay, BET-BD with acetylated peptide ligand
# Type: binding
# Conditions used: BRD2-BD2; Table 11 additional modifications; read-out: 2.2 EC50
# Sequence (P25440 344-453): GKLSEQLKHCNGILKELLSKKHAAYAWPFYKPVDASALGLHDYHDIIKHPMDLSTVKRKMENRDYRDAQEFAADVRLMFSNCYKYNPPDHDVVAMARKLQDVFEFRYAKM
// reported log10 EC50 per item
Log scale reminder: EC50 in µM, then log10 taken.

For CC(=O)Nc1cccc(-c2ccc3c(c2)[C@H](NC(=O)c2ccc(Cl)cc2)C[C@H](C)N3C(C)=O)c1 [compound 72] , what is its reported log10 EC50?
1.71

For CC(=O)N1c2ccc(C3=CCCO3)cc2[C@H](NC(=O)OC(C)C)C[C@@H]1C [compound 85] , what is its reported log10 EC50?
0.08

For CC(=O)N1c2ccc(-c3cccc([N+](=O)[O-])c3)cc2[C@H](NC(=O)OC(C)C)C[C@@H]1C [compound 58] , what is its reported log10 EC50?
0.04

For COc1cc(F)ccc1N[C@@H]1C[C@H](C)N(C(C)=O)c2ccc(-c3ccn(C)n3)cc21 [compound 173] , what is its reported log10 EC50?
-0.77

For CC(=O)Nc1cccc(-c2ccc3c(c2)[C@H](Nc2ccc(C(=O)OC(C)(C)C)cc2)C[C@H](C)N3C(C)=O)c1 [compound 176] , what is its reported log10 EC50?
-0.12

For CC(=O)N1c2ccc(-c3cccc(NC(=O)C(C)(C)C)c3)cc2[C@H](NC(=O)OC(C)C)C[C@@H]1C [compound 113] , what is its reported log10 EC50?
-0.96

For CCC(=O)Nc1cccc(-c2ccc3c(c2)[C@H](NC(=O)OC(C)C)C[C@H](C)N3C(C)=O)c1 [compound 115] , what is its reported log10 EC50?
-1.40

For COC(=O)c1ccc(N[C@@H]2C[C@H](C)N(C(C)=O)c3ccc(-c4ccnn4C)cc32)cc1 [compound 144] , what is its reported log10 EC50?
-0.54

For COC(=O)c1ccc(N[C@@H]2C[C@H](C)N(C(C)=O)c3ccc(-c4cccc(NC(C)=O)c4)cc32)c(OC)c1 [compound 161] , what is its reported log10 EC50?
-1.36

For CC(=O)Nc1cccc(-c2ccc3c(c2)[C@H](Nc2ccc(C#N)cc2Cl)C[C@H](C)N3C(C)=O)c1 [compound 196] , what is its reported log10 EC50?
-1.22

For CC(=O)N1c2ccc(-c3cccc(NC(=O)Cc4ccccc4)c3)cc2[C@H](NC(=O)OC(C)C)C[C@@H]1C [compound 110] , what is its reported log10 EC50?
-0.92

For CC(=O)Nc1cccc(-c2ccc3c(c2)[C@H](Nc2ccc(OC(F)(F)F)cc2)C[C@H](C)N3C(C)=O)c1 [compound 132] , what is its reported log10 EC50?
-0.43

For CC(=O)N1c2ccc(-c3ccn(C)n3)cc2[C@H](Nc2ccccc2OC(F)(F)F)C[C@@H]1C [compound 172] , what is its reported log10 EC50?
-0.19

For CCCCNc1cccc(-c2ccc3c(c2)[C@H](NC(=O)OC(C)C)C[C@H](C)N3C(C)=O)c1 [compound 114] , what is its reported log10 EC50?
-1.30

For CC(=O)N1c2ccc(-c3cccc(NCCC(F)(F)F)c3)cc2[C@H](Nc2ccccc2OC(F)(F)F)C[C@@H]1C [compound 153] , what is its reported log10 EC50?
0.23

For CC(=O)Nc1cccc(-c2ccc3c(c2)[C@H](NC(=O)CCc2ccccc2)C[C@H](C)N3C(C)=O)c1 [compound 74] , what is its reported log10 EC50?
1.23

For CC(=O)N1c2ccc(-c3ccnn3C)cc2[C@H](NC(=O)OC(C)C)C[C@@H]1C [compound 97] , what is its reported log10 EC50?
0.40

For CCCOc1cccc(-c2ccc3c(c2)[C@H](Nc2ccc(C(=O)OC)cc2)C[C@H](C)N3C(C)=O)c1 [compound 56] , what is its reported log10 EC50?
-0.30

For COC(=O)c1ccccc1N[C@@H]1C[C@H](C)N(C(C)=O)c2ccc(-c3cccc(NC(C)=O)c3)cc21 [compound 15] , what is its reported log10 EC50?
-0.96
